target: Cytochrome P450 2A6 (Homo sapiens, UniProt P11509); settings: bti-tn-5b1-4; further: in other assays of this panel Not Active means under 50% inhibition at 10 µM
Sequence (P11509 whole entry): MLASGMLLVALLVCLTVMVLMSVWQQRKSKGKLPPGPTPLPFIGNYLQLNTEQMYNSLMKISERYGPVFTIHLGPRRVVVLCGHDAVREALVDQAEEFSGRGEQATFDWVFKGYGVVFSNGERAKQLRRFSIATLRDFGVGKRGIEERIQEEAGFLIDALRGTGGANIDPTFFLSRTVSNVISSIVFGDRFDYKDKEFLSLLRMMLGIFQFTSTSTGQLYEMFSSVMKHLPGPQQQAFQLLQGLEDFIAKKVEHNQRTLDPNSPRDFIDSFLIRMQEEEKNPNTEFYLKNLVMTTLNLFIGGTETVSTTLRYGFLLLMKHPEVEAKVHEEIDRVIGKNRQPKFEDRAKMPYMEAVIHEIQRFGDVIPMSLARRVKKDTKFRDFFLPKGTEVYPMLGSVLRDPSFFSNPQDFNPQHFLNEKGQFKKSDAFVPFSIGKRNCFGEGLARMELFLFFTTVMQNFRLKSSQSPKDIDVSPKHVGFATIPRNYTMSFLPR
VALUE KIND: IC50

CC(C)[C@H]1C(=O)N2CCC[C@H]2[C@]2(O)O[C@](NC(=O)[C@@H]3C=C4c5cccc6[nH]cc(c56)C[C@H]4N(C)C3)(C(C)C)C(=O)N12 [ERGOCORNINE] | Not Active
Nc1nc2c(ncn2CCC(CO)CO)c(=O)[nH]1 [PENCICLOVIR] | Not Active
CC(C)N1CCN(c2ccc(OCC3COC(Cn4cncn4)(c4ccc(Cl)cc4Cl)O3)cc2)CC1 (stereo not drawn) [TERCONAZOLE] | Not Active
CC[C@@]1(O)C[C@H](O[C@H]2C[C@H](N(C)C)[C@H](O[C@H]3C[C@H](O)[C@H](O[C@H]4CCC(=O)[C@H](C)O4)[C@H](C)O3)[C@H](C)O2)c2c(cc3c(c2O)C(=O)c2c(O)cccc2C3=O)[C@H]1C(=O)OC [ACLARUBICIN] | Not Active
CCCN1C[C@H](CSC)C[C@@H]2c3cccc4[nH]cc(c34)C[C@H]21 [PERGOLIDE] | Not Active

## Task Entry Cc1onc(O)c1CC(N)C(=O)O (racemic) [(R,S)-AMPA] needs its IC50 filled in; supply it.
## Result Not Active

## Task Check the records and state IC50 for N[C@@H](Cc1ccc(O)c(O)c1)C(=O)O [LEVODOPA]
## Result Not Active

## Task Give IC50 for Nc1nc(N)nc(-c2cc(Cl)ccc2Cl)n1.O=C(O)/C=C\C(=O)O [IRSOGLADINE MALEATE]
## Result Not Active

====

biological target: Adenosine receptor A3 (Homo sapiens, UniProt P0DMS8); type: cell membranes, CHO-K1, Membrane; settings: cho-k1; further: in other assays of this panel Not Active means under 50% inhibition at 10 µM;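 further: radioligand binding assay with AB-MECA serving as the labeled ligand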
Sequence (P0DMS8 whole entry): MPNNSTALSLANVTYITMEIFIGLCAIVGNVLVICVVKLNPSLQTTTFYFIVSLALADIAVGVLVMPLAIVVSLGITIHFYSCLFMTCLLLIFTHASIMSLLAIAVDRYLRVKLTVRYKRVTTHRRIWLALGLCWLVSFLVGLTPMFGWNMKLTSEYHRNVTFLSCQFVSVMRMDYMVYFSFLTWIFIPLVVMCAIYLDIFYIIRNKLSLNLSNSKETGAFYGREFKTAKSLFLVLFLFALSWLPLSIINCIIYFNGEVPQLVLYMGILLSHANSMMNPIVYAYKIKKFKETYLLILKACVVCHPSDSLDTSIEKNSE
VALUE KIND: Ki

SODIUM NITROPRUSSIDE | Not Active
LIPOPOLYSACCHARIDE E. COLI O55:B5 | Not Active
CADMIUM ACETATE | Not Active
LEAD (II) ACETATE | Not Active

====

Target: Polyunsaturated fatty acid lipoxygenase ALOX15 (Oryctolagus cuniculus); further: in other assays of this panel Not Active means under 50% inhibition at 10 µM;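 further: inhibition of 15-lipoxygenase enzyme activity measured with linoleic acid as the substrate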
Sequence (P12530 whole entry): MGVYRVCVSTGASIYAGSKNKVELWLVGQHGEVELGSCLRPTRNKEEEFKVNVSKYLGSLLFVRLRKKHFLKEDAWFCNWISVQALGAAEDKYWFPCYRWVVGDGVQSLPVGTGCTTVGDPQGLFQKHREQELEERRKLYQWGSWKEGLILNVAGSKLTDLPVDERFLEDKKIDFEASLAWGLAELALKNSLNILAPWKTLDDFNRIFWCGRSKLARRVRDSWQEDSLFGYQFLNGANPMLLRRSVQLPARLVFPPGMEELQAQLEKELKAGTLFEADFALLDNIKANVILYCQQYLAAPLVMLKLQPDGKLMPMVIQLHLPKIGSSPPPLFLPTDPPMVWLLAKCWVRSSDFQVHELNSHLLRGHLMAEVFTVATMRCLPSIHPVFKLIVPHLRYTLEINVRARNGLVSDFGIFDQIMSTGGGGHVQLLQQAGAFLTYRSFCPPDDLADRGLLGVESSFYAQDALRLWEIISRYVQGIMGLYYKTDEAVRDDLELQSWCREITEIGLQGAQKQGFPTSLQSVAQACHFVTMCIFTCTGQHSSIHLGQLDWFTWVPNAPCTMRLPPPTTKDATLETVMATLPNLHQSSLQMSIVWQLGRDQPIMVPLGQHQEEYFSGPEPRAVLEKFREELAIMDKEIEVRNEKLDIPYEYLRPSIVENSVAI
Test: biochemical
Type: tissue-based, Reticulocytes
Settings: read-out: IC50
VALUE KIND: pIC50
// pIC50 here means minus log10 of the molar concentration (mol/L)

## Task Provide measured pIC50 value, entry: C[C@]12CC[C@@H]3c4ccc(O)cc4CC[C@H]3[C@@H]1CCC2=O
## Result 5.18

## Task Using known records, supply pIC50 for CN(C)CCCN1c2ccccc2Sc2ccc(Cl)cc21
## Result 4.80

## Task Using known records, supply pIC50 for CO[C@H]1/C=C/O[C@@]2(C)Oc3c(C)c(O)c4c(O)c(c(/C=N/N5CCN(C)CC5)c(O)c4c3C2=O)NC(=O)/C(C)=C\C=C\[C@H](C)[C@H](O)[C@@H](C)[C@@H](O)[C@@H](C)[C@H](OC(C)=O)[C@@H]1C
## Result 5.53

## Task Return pIC50 for the following molecule: N[C@@H](Cc1ccc(O)c(O)c1)C(=O)O
## Result 5.65

## Task Let me know recorded pIC50 for CC(C)N1CCN(c2ccc(OCC3COC(Cn4cncn4)(c4ccc(Cl)cc4Cl)O3)cc2)CC1 (stereo not given) , thanks.
## Result 5.61

## Task Quick one: give measured pIC50 for OCCN(CCO)c1nc(N2CCCCC2)c2nc(N(CCO)CCO)nc(N3CCCCC3)c2n1
## Result 5.16

## Task Provide measured pIC50 value, entry: CC1Cc2ccccc2N1NC(=O)c1ccc(Cl)c(S(N)(=O)=O)c1 (stereo not given) [INDAPAMIDE]
## Result 5.53

## Task Answer with reported pIC50 of c1ccc(Nc2ccc(Nc3ccccc3)cc2)cc1
## Result 5.54

## Task Indicate its recorded pIC50; the molecule in question is Nc1nc2nc[nH]c2c(=S)[nH]1
## Result 4.79

## Task Respond only with pIC50 recorded for C[C@](N)(Cc1ccc(O)c(O)c1)C(=O)O
## Result 5.67
